Record form. Attribute: protein stability index. Fill in for each entry.
# Experiment summary: protein stability index of a GFP-peptide fusion (GPS, HEK-293T) (PSI 1-6); higher = more stable;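 also: 24-mer peptide tiles fused after GFP, lentivirally expressed, FACS-sorted into six equal bins by GFP/DsRed ratio, decoded by Illumina sequencing, PSI is the read-weighted mean bin number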
# Measurement setup: treatment: DMSO; c terminus: a fixed tail appended

Return reported protein stability index; argument: KSFSMANGMNAVMMHGRSYSLASG [RAB40C]
3.08

Return reported protein stability index; argument: RQLYAVNRRLRALEEQGATWRHRE [FATE1]
3.52

Return reported protein stability index; argument: TTPLQLAIIRERSSCVKILLDHNA [ASB7]
2.26

Return reported protein stability index; argument: IQSGAWVCYQYPGYRGYQYILECD [CRYBA1]
2.39

Return reported protein stability index; argument: FIQKRCNSLLEEETILHFFVQILL [NEK8]
2.41

Return reported protein stability index; argument: GFSPIIGRFCGQQNPPVIKSSGRF [NETO1]
2.42

Return reported protein stability index; argument: LHLASDFFLKHPDKDVRLLVACCL [PDS5B]
2.23

Return reported protein stability index; argument: GASTSCLLPVQVVTEHPLELIRVE [PCDHGC5]
3.12

Return reported protein stability index; argument: AGYEVDKIAQNLDFVNLMAYDFHG [CHIT1]
2.28

Return reported protein stability index; argument: RTTVHDKSAHQTHSSWTPPNAQYW [DNAJC4]
2.99

Return reported protein stability index; argument: GLSAPARCLVRCLLRREPAERLTA [TRIB3]
2.33

Return reported protein stability index; argument: SGASPKESTNPEKAHETLHQSLSL [CDC25A]
4.95

Return reported protein stability index; argument: LNGSSQPTTRNYPELNNNQYNRSS [CDC14A]
4.19
